experiment: in vivo
Format: in vivo
test settings: Hartley, in vivo; 20 min post dose of 40 mg/Kg bupropion via oral gavage, guinea pig; read-out: Plasma levels
assay endpoint: concentration at 20 min

{"columns": ["compound", "assay endpoint", "result"],
 "data": [
  ["C[C@@H](NC(C)(C)C)[C@H](O)c1cccc(Cl)c1 [THB, threo-hydrobupropion]", "concentration at 20 min", "830 ng/mL"],
  ["CC(NC(C)(C)C)C(=O)c1cccc(Cl)c1 (centres unmarked)", "concentration at 20 min", "90 ng/mL"]
]}

====

Recorded AUC(0-t), one value per entry.
experiment: in vivo
test settings: male, Hartley albino, guinea pig, ip, 40 mg/kg
assay endpoint: AUC(0-t)

{"columns": ["compound", "result"],
 "data": [
  ["C[C@H]1NC(C)(C)CO[C@]1(O)c1cccc(Cl)c1 (relative stereo) [BupOH, hydroxybupropion]", "2330 ng·h/mL"],
  ["C[C@@H](NC(C)(C)C)[C@H](O)c1cccc(Cl)c1 [THB, threo-hydrobupropion]", "2860 ng·h/mL"]
]}

====

experiment: in vivo
test settings: male, Hartley albino, guinea pig, ip, 40 mg/kg, Cmax, plasma analyte after dosing bupropion 40 mg/Kg IP
assay endpoint: Cmax (ng/mL)

{"columns": ["molecule", "assay endpoint", "numeric value"],
 "data": [
  ["CC(NC(C)(C)C)C(=O)c1cccc(Cl)c1 (centres unmarked)", "Cmax", 869],
  ["C[C@@H](NC(C)(C)C)[C@H](O)c1cccc(Cl)c1 [THB, threo-hydrobupropion]", "Cmax", 1230]
]}

====

experiment: in vivo
test settings: male, Hartley albino, guinea pig, ip, 40 mg/kg, Mean Cmax ± SD, plasma analyte after Bupropion dosed at 40 mg/Kg IP, n = 5
assay endpoint: Cmax

{"columns": ["molecule", "assay endpoint", "result"],
 "data": [
  ["CC(NC(C)(C)C)C(=O)c1cccc(Cl)c1 (stereo not shown) [Bup, Bupropion]", "Cmax", "870 ng/mL"]
]}
